Data origin, for the record: paper PMC7211195

Test: Lapatinib pharmacokinetics and uptake in rat cerebrospinal fluid (CSF)
Assay type: in vivo, rats
Conditions: male, Wistar, rat, cerebrospinal fluid, po, 100 mg/kg, cerebrospinal fluid; lapatinib 100 mg/kg oral + 5 mg/kg elacridar (IE+L)
Procedure: This study was conducted on rats, which are a promising model to predict P-gp-based drug-drug interactions at the human BBB [15]. The animals were allowed to acclimate for one week before the beginning of the experiments. Adult male Wistar-strain rats (weight 470–525 g) were used in the study. […]
parameter: AUC(0-inf)

Reported AUC(0-inf) for CS(=O)(=O)CCNCc1ccc(-c2ccc3ncnc(Nc4ccc(OCc5cccc(F)c5)c(Cl)c4)c3c2)o1 [lapatinib] was 387 ng·h/mL
